Tested on: PEG-3
Assay: Peg3 promoter luciferase inhibitors, potency, dose response, cell-based, HeLa, CREF/GAPDH counter-screen panel (AID 624167)
Settings: HeLa PEG-Prom luciferase reporter, overnight, CREF/GAPDH counter-screens, run 1, dose range 1, individual replicate IC50 per panel
ASSAY_READOUT: IC50 (µM)
Numeric answer only, unit µM assumed.

These recorded examples may help you get a feel for the data.
CCN1CCc2c(sc(NC(=O)c3ccc(S(=O)(=O)N4CCCCCC4)cc3)c2C(=O)NC)C1 ... 21.2
N#Cc1c(N)nc(SCc2ccncc2)c(C#N)c1-c1cccs1 ... 21.4
N/C(=N\OC(=O)c1ccccc1)C(C(=O)NOC(=O)c1ccccc1)C1CCCCC1 (stereo not given) ... 24.5
CCc1nc(Nc2ccc(N3CCN(C(C)=O)CC3)cc2)c2oc3ccccc3c2n1 ... 28.1

Please look at the following molecule next.
What IC50 value was documented for this molecule, CC(Cc1ccccc1)NCCC(c1ccccc1)c1ccccc1 (stereo not given) ?
19.9

====

Tested on: Rat fibroblasts (CREF)
Experiment: Peg3 promoter luciferase inhibitors, potency, dose response, cell-based, HeLa, CREF/GAPDH counter-screen panel (AID 624167);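 active = mean IC50 for reducing PEG3 promoter reporter signal at or below a set limit, with IC50 above the limit in both counter screens; inactive = the rest, including counter screen hits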
Conditions: CREF/GAPDH counter-screens, mean of runs
Respond only with the outcome that fits, drawn from YES for active, NO for inactive

// below: answered compounds
Cc1cc(S(=O)(=O)c2ccc(Cl)cc2)nc(S(=O)(=O)c2ccc(Cl)cc2)c1C#N ... YES
COc1ccc(C(=O)Nc2nc3ccccc3s2)c(OC)c1 ... YES

State the result this test recorded for CCOc1ccc(C(=O)O/N=C(\N)c2ccccn2)cc1 .
YES

Now give it for CCCN1C=CC(=C2C(=O)c3ccccc3C2=O)C=C1 too.
YES

====

Target: UniProt:Q6IN02
Assay: Peg3 promoter luciferase inhibitors, potency, dose response, cell-based, HeLa, CREF/GAPDH counter-screen panel (AID 624167)
Conditions: HeLa PEG-Prom luciferase reporter, overnight, CREF/GAPDH counter-screens, mean of runs
Activity calls are given as the source filed them.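 How the source made its calls: active means mean IC50 for reducing PEG3 promoter reporter signal at or below a set limit, with IC50 above the limit in both counter screens; inactive means the rest, including counter screen hits.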
Respond only with the outcome that fits, drawn from active, inactive

CCCCNc1nc(=S)n(-c2ccccc2)c(C)c1C(C)=O ... active
O=C(c1cc(-c2cccs2)nn1-c1ccccc1)N1CCN(S(=O)(=O)c2ccccc2)CC1 ... inactive
CC1=NN(c2cccc(C(=O)O)c2)C(=O)/C1=C\C=C/c1ccccc1 ... active

State the result this test recorded for Cc1cc(C)c(C)c(S(=O)(=O)N2CCN(C(=O)c3cc(=O)[nH]c4ccccc34)CC2)c1C .
active

Now give it for CN(C)CC1CCC/C(=C/c2ccc(Cl)cc2)C1=O (configuration not stated) too.
active

====

Target: PEG-3 (UniProt Q6IN02)
Sequence (Q6IN02 whole entry, looked up): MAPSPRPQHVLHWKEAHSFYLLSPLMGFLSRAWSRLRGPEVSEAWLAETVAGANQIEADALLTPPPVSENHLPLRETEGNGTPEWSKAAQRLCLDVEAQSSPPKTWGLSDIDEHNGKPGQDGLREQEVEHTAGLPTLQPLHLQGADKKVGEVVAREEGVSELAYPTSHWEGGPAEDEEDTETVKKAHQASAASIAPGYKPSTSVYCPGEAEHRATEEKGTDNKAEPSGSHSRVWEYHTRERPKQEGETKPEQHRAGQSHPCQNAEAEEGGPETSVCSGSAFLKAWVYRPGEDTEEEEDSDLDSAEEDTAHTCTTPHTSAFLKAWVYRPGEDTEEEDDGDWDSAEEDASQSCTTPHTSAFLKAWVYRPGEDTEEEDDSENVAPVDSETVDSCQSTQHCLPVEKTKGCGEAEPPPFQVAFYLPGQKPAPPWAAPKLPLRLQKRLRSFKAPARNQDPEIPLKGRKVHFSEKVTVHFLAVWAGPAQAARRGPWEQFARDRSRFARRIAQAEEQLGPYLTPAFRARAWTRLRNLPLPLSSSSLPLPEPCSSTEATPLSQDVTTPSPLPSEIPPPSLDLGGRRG
Test: Peg3 promoter luciferase inhibitors, potency, dose response, cell-based, HeLa, CREF/GAPDH counter-screen panel (AID 624167)
Conditions: HeLa PEG-Prom luciferase reporter, overnight, CREF/GAPDH counter-screens, mean of runs
The source made the active and inactive calls.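 Rule for the calls: active = mean IC50 for reducing PEG3 promoter reporter signal at or below a set limit, with IC50 above the limit in both counter screens; inactive = the rest, including counter screen hits.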
Respond only with the outcome that fits, drawn from T = active, F = inactive

CC(C(=O)NC1CCCC1)N(C(=O)Cn1nnc(-c2ccc(F)cc2)n1)c1ccccc1F (configuration not stated) ... F

State the result this test recorded for CCC(c1ccc(O)c(O)c1)C(CC)c1ccc(O)c(O)c1 (configuration not stated) .
T

Now give it for Cc1ccc(NS(=O)(=O)c2cc3c4c(cccc4c2)C(=O)NC3=O)cc1C too.
F

Now give it for COc1cccc2nc3c(C(=O)NCCN(C)C)cccc3cc12 too.
T

Now give it for COc1cccc(CN(C)C(=O)C(CCSC)NS(=O)(=O)c2ccc3c(c2)OCCO3)c1OC (configuration not stated) too.
F

Now give it for NC(N)=N/N=C/c1ccc(Cl)cc1Cl too.
F

Now give it for CCC1=C(CC2NCCc3ccccc32)CC2c3cc(OC)c(OC)cc3CCN2C1 (configuration not stated) too.
T

The measurements presented in this section are drawn from PubChem BioAssay AID624167.
